target.of.assay: sGC α1/β1 heterodimer (Homo sapiens, UniProt Q02108+Q02153)
Construct: expressed in transfected cells
Sequence (Q02108 1-690): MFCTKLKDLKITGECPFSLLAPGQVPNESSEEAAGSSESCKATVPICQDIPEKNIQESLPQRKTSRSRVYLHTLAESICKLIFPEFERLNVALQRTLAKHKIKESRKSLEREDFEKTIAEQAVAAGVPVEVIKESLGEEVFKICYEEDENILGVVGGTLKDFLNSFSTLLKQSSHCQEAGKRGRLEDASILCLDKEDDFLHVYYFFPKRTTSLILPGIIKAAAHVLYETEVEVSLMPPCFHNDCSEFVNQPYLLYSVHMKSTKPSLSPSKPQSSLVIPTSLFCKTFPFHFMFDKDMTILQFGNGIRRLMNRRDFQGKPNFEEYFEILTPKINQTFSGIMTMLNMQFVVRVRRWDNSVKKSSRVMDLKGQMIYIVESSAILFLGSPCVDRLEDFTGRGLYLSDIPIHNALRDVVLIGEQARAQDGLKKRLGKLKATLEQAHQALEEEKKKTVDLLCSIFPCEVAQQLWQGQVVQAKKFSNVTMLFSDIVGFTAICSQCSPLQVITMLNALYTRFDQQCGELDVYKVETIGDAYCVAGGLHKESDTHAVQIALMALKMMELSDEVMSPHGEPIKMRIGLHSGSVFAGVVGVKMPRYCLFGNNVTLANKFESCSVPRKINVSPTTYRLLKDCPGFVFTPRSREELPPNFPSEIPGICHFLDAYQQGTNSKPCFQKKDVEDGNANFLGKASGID
Sequence (Q02153 1-619): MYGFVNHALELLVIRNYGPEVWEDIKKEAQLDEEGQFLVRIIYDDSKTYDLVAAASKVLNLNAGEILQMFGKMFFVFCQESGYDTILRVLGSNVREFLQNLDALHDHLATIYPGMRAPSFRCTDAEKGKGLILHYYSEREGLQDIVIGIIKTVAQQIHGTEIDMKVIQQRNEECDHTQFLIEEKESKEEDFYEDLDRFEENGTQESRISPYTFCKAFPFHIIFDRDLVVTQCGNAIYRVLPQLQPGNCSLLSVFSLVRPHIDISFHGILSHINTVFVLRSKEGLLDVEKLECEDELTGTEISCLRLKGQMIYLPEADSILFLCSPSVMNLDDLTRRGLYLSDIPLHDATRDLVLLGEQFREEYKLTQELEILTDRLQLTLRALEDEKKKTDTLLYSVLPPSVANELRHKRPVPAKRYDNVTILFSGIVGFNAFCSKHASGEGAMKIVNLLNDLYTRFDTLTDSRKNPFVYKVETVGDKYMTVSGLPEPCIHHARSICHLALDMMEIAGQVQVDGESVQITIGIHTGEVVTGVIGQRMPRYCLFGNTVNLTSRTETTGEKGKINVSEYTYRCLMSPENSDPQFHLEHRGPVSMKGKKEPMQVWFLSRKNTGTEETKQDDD
protocol: Cell-Based sGC Functional Assay (CASA Assay)
assay.context: CHO-K1/sGC cells; cGMP as percentage of maximum cGMP production of Compound A (=100% activation); read-out: % ACT (percent activation)
This listing pairs molecules with measured Emax.
experimental.endpoint: Emax (%)

- molecule: "CCn1ncc2c(-c3nc(N)c4c(n3)NC(=O)C4(C)c3ccc(F)cc3)nc(CCC(F)(F)C(F)(F)F)nc21 (single isomer, unassigned)"
  experimental.endpoint: "Emax"
  units: "%"
  experimental.result: 119
- molecule: "[2H]C([2H])([2H])n1ncc2c(-c3nc(N)c4c(n3)NC(=O)C4(CCCC)C3CC3)nc(CCC(F)(F)C(F)(F)F)nc21 (single isomer, unassigned)"
  experimental.endpoint: "Emax"
  units: "%"
  experimental.result: 80
- molecule: "CCOC(=O)C1(C2CC2)C(=O)Nc2nc(-c3nc(CCCC(F)(F)F)nc4c3cnn4C)nc(N)c21 (single isomer, unassigned)"
  experimental.endpoint: "Emax"
  units: "%"
  experimental.result: 98
- molecule: "Cn1ncc2c(-c3nc(N)c4c(n3)NC(=O)C4(C)C(N)=O)nc(CCC(F)(F)C(F)(F)F)nc21 (single isomer, unassigned)"
  experimental.endpoint: "Emax"
  units: "%"
  experimental.result: 84
- molecule: "CCOC(=O)C1(C2CC2)C(=O)Nc2nc(-c3nc(CCC(F)(F)C(F)(F)F)nc4c3cnn4C)nc(N)c21 (single isomer, unassigned)"
  experimental.endpoint: "Emax"
  units: "%"
  experimental.result: 93
- molecule: "CCn1ncc2c(-c3nc(N)c4c(n3)NC(=O)C4(C)c3ccc(F)cc3)nc(CCCC(F)(F)F)nc21 (single isomer, unassigned)"
  experimental.endpoint: "Emax"
  units: "%"
  experimental.result: 123

---

target.of.assay: sGC α1/β1 heterodimer (Homo sapiens, UniProt Q02108+Q02153)
Construct: expressed in transfected cells
protocol: Cell-Based sGC Functional Assay (CASA Assay)
assay.context: CHO-K1/sGC cells; cGMP as percentage of maximum cGMP production of Compound A (=100% activation); read-out: % ACT (percent activation)
Please enter MET where Emax is greater than or equal to 90%, and NOT MET where it is lower.

- compound: "Cn1nnc2c(-c3nc(N)c4c(n3)NC(=O)C4(C)c3ccc(F)cc3)nc(Cc3cccc(F)c3F)nc21 (single isomer, unassigned)"
  discrete.label: "NOT MET"
- compound: "Cn1ncc2c(-c3nc(N)c4c(n3)NC(=O)C4(C)NC(=O)C3CC3)nc(CCC(F)(F)C(F)(F)F)nc21 (stereo not drawn)"
  discrete.label: "MET"
- compound: "C#CC1(C2CC2)C(=O)Nc2nc(-c3nc(CCC(F)(F)C(F)(F)F)nc4c3cnn4C)nc(N)c21 (single isomer, unassigned)"
  discrete.label: "MET"
- compound: "COc1ccc(C2(C)C(=O)Nc3nc(-c4nc(CCC(F)(F)C(F)(F)F)nc5c4cnn5C)nc(N)c32)cc1F (single isomer, unassigned)"
  discrete.label: "MET"
- compound: "[2H]C([2H])([2H])n1nc(C2CC2)c2c(-c3nc(N)c4c(n3)NC(=O)C4(C)c3ccc(F)cc3)nc(CCC(F)(F)C(F)(F)F)nc21 (stereo not drawn)"
  discrete.label: "MET"

---

target.of.assay: sGC α1/β1 heterodimer (Homo sapiens, UniProt Q02108+Q02153)
protocol: Cell-Based sGC Functional Assay (CASA Assay)
assay.context: CHO-K1/sGC cells, intracellular cGMP by HTRF, 1 hr at 37° C.; IP from 4P fit; presence or absence of 1 μM DETA-NO not given
pEC50: −log10 of the molar value.
experimental.endpoint: pEC50

- molecule: "Cn1ccc2c(-c3nc(N)c4c(n3)NC(=O)C4(C)c3ccc(F)cc3)nc(CCC(F)(F)C(F)(F)F)nc21 (single isomer, unassigned)"
  experimental.endpoint: "pEC50"
  experimental.result: 7.21
- molecule: "[2H]C([2H])([2H])n1ncc2c(-c3nc(N)c4c(n3)NC(=O)C4(C)c3ccc(-c4nnco4)cc3)nc(CCC(F)(F)C(F)(F)F)nc21 (single isomer, unassigned)"
  experimental.endpoint: "pEC50"
  experimental.result: 6.15
- molecule: "CCn1ncc2c(-c3nc(N)c4c(n3)NC(=O)C4(C)c3ccc(F)cc3)nc(CCC(F)(F)C(F)(F)F)nc21 (single isomer, unassigned)"
  experimental.endpoint: "pEC50"
  experimental.result: 7.28
- molecule: "Cn1nnc2c(-c3nc(N)c4c(n3)NC(=O)C4(C)c3ccc(F)cc3)nc(Cc3cccc(F)c3F)nc21 (single isomer, unassigned)"
  experimental.endpoint: "pEC50"
  experimental.result: 6.81
- molecule: "[2H]C([2H])([2H])n1ncc2c(-c3nc(N)c4c(n3)NC(=O)C4(C)C#C)nc(CCC(F)(F)C(F)(F)F)nc21 (single isomer, unassigned)"
  experimental.endpoint: "pEC50"
  experimental.result: 7.34
- molecule: "Cn1ncc2c(-c3nc(N)c4c(n3)NC(=O)C4(C)c3ccc(F)cc3)nc(CC3CC(F)(F)C3)nc21 (single isomer, unassigned)"
  experimental.endpoint: "pEC50"
  experimental.result: 7.28
- molecule: "Cn1ncc2c(-c3nc(N)c4c(n3)NC(=O)C4(C)C(=O)NC3CC3)nc(CCC(F)(F)C(F)(F)F)nc21 (single isomer, unassigned)"
  experimental.endpoint: "pEC50"
  experimental.result: 6.72

---

target.of.assay: sGC α1/β1 heterodimer (Homo sapiens, UniProt Q02108+Q02153)
Construct: expressed in transfected cells
protocol: Cell-Based sGC Functional Assay (CASA Assay)
assay.context: CHO-K1/sGC cells; cGMP as percentage of maximum cGMP production of Compound A (=100% activation); read-out: % ACT (percent activation)
This listing pairs compounds with measured Emax.

- compound: "[2H]C([2H])([2H])n1nnc2c(-c3nc(N)c4c(n3)NC(=O)C4(C)c3ccccc3)nc(CCC(F)(F)C(F)(F)F)nc21 (single isomer, unassigned) [Example 68]"
  Emax [%]: 107
- compound: "CC(C)NC1(C)C(=O)Nc2nc(-c3nc(CCC(F)(F)C(F)(F)F)nc4c3cnn4C)nc(N)c21 (stereo not shown) [Example 55]"
  Emax [%]: 118
- compound: "[2H]C([2H])([2H])n1ncc2c(-c3nc(N)c4c(n3)NC(=O)C4(C)c3ccc(C#N)cc3)nc(CCC(F)(F)C(F)(F)F)nc21 (single isomer, unassigned) [Example 47]"
  Emax [%]: 95
- compound: "[2H]C([2H])([2H])n1ncc2c(-c3nc(N)c4c(n3)NC(=O)C4(C)C(=O)Nc3cnn(C)c3)nc(CCC(F)(F)C(F)(F)F)nc21 (single isomer, unassigned) [Example 42]"
  Emax [%]: 134
